Kindly supply the reported refractive index values for the records listed here.
- procedureText: refractive index (Na D-line) (dimensionless)
- conditionDetails: 318.15 K; 101.33 kPa; Liquid; Standard Abbe refractometry
Lab note: jot the number down without any unit.

Given the compound CC(C)C[N+]1(C)CCCC1.O=S(=O)([N-]S(=O)(=O)C(F)(F)F)C(F)(F)F , write its reported refractive index.
1.41837

Given the compound Cc1ccc[n+](CC(C)C)c1.O=S(=O)([N-]S(=O)(=O)C(F)(F)F)C(F)(F)F , write its reported refractive index.
1.43951

Given the compound CCCC[n+]1ccn(C)c1.O=S(=O)([N-]S(=O)(=O)C(F)(F)F)C(F)(F)F , write its reported refractive index.
1.42086

Given the compound CCCC[N+]1(C)CCCC1.O=S(=O)([N-]S(=O)(=O)C(F)(F)F)C(F)(F)F , write its reported refractive index.
1.41734

Given the compound CCCC[n+]1cccc(C)c1.O=S(=O)([N-]S(=O)(=O)C(F)(F)F)C(F)(F)F , write its reported refractive index.
1.43952

Given the compound CC(C)Cn1cc[n+](C)c1.O=S(=O)([N-]S(=O)(=O)C(F)(F)F)C(F)(F)F , write its reported refractive index.
1.42076

Sourced from the NIST ThermoML archive (doi:10.1016/j.fluid.2016.04.009)
